biological target: G protein-coupled receptor 88 (Homo sapiens); assay: Agonist activity at GPR88 (unknown origin) transfected into cells assessed as cAMP accumulation by HTRF assay; assay type: functional
Sequence (Q9GZN0 whole entry): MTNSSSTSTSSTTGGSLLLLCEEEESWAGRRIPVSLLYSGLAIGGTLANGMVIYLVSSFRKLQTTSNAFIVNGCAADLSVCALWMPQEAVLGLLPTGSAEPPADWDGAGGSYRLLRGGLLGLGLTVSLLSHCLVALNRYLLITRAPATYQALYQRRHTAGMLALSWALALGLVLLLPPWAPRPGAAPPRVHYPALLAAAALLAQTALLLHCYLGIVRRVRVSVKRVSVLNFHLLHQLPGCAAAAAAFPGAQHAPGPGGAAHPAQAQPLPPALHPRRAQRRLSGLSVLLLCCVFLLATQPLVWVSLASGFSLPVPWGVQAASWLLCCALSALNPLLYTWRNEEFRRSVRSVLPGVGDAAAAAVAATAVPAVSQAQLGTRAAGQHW
Property Label: pEC50
The value called pEC50 is obtained by taking minus log10 of the concentration in mol/L.

[Q] Request body: readout pEC50, system G protein-coupled receptor 88 (Homo sapiens), query `CC[C@H](C)[C@H](N)CN(C(=O)[C@@H]1C[C@H]1c1nc(C)cs1)c1ccc(-c2ccccc2)cc1` . Return the value.
[A] 6.14

[Q] Request body: readout pEC50, system G protein-coupled receptor 88 (Homo sapiens), query `CC[C@H](C)[C@H](N)CN(C(=O)[C@@H]1C[C@H]1c1cccc(C)c1)c1ccc(-c2ccccc2)cc1` . Return the value.
[A] 5.92

[Q] Request body: readout pEC50, system G protein-coupled receptor 88 (Homo sapiens), query `CC(C)C[C@H](N)CN(C(=O)[C@@H]1C[C@H]1c1ccccc1)c1ccc(-c2cccnc2)cc1` . Return the value.
[A] 5.00

[Q] Request body: readout pEC50, system G protein-coupled receptor 88 (Homo sapiens), query `CC(C)C[C@@H](N)CN(C(=O)[C@@H]1C[C@H]1c1ccccc1)c1ccc(-c2ccccc2)cc1` . Return the value.
[A] 8.74

[Q] Request body: readout pEC50, system G protein-coupled receptor 88 (Homo sapiens), query `CC[C@H](C)[C@H](N)CN(C(=O)[C@@H]1C[C@H]1c1cccs1)c1ccc(-c2ccccc2)cc1` . Return the value.
[A] 6.44

[Q] Request body: readout pEC50, system G protein-coupled receptor 88 (Homo sapiens), query `CC[C@H](C)[C@H](N)CN(C(=O)[C@@H]1C[C@H]1c1ccc(F)c(F)c1)c1ccc(-c2ccccc2)cc1` . Return the value.
[A] 6.14

[Q] Request body: readout pEC50, system G protein-coupled receptor 88 (Homo sapiens), query `CC[C@H](C)[C@H](N)CN(C(=O)[C@@H]1C[C@H]1c1ccccc1)c1ccc(-c2ccc(CNC)cc2)cc1` . Return the value.
[A] 5.19

[Q] Request body: readout pEC50, system G protein-coupled receptor 88 (Homo sapiens), query `CC(C)C[C@H](N)CN(C(=O)[C@@H]1C[C@H]1c1ccccc1)c1ccc(-c2ccoc2)cc1` . Return the value.
[A] 5.70

###

target: G protein-coupled receptor 88 (Homo sapiens); experiment: Agonist activity at GPR88 (unknown origin) transfected into cells assessed as cAMP accumulation by HTRF assay
Property Label: EC50 (µM)
Unit µM implied. Number only.

[Q] Request body: readout EC50, system G protein-coupled receptor 88 (Homo sapiens), query `CC(C)[C@H](N)CN(C(=O)[C@@H]1C[C@H]1c1ccccc1)c1ccc(-c2ccccc2)cc1` . Return the value.
[A] 0.0011

[Q] Request body: readout EC50, system G protein-coupled receptor 88 (Homo sapiens), query `CC[C@H](C)[C@H](N)CN(C(=O)[C@@H]1C[C@H]1c1cccc(C#N)c1)c1ccc(-c2ccccc2)cc1` . Return the value.
[A] 1.6

[Q] Request body: readout EC50, system G protein-coupled receptor 88 (Homo sapiens), query `CC(C)C[C@H](N)CN(C(=O)[C@@H]1C[C@H]1c1ccccc1)c1ccc(-c2ccc(C#N)cc2)cc1` . Return the value.
[A] 0.67

[Q] Request body: readout EC50, system G protein-coupled receptor 88 (Homo sapiens), query `CC(C)CCNCCN(C(=O)[C@@H]1C[C@H]1c1ccccc1)c1ccc(-c2ccccc2)cc1` . Return the value.
[A] 0.0051

Measured values drawn from ChEMBL document CHEMBL3400000 for this set.
